Molecular target: T1, serum resistance-associated protein (SRA) from Trypanosoma brucei rhodesiense, recombinant SRA (SEQ ID NO: … (Trypanosoma brucei rhodesiense, UniProt O96637 31-274))
T1 construct: also called SRA protein
T1 sequence: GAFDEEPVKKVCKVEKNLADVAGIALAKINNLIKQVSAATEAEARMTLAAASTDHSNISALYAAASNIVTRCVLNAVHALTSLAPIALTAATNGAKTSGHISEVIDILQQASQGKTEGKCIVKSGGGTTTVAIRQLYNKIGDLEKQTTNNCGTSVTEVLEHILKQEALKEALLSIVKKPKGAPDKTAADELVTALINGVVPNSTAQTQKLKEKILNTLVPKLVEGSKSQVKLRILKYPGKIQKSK
Experiment: SPR, mAb captured, 25C, pH 7.4

>  <BINDER>
H1H10041P (antibody, V domains shown, Fully human antibody with human IgG1 Fc (prefix H1H)) VH: QVQLVQSGAEVRKPGSSMKVSCATSGGNFRSYTINWVRQAPGQGLEWMGGVFPAVGTRIYAQKFQGRVTISTDESTTIAYMELNSLVPEDTAVYYCARSFNSPFDFWDQGTLVTVSS VL: AIQMTQSPSSLSASVGDRVTLTCRASQDIRNDLHWFQQTPGKAPRLLIYSASNLQSGVPSRFSGTGSGTDFTLTFSSLQPEDFATYYCLQDYSYPYTFGQGTKLEIK

>  <UNIT DESCRIPTOR>
h

>  <BOUND SIGN>
≥

>  <t ½>
3.85

$$$$
>  <BINDER>
H2aM10204N (antibody, V domains shown, Chimeric antibody, human variable domains and mouse constant domains (mouse Fc, prefix H2aM); also called H2M10204N) VH: QVHLVQSGAEVKKPGSSVKVSCKASGGTFSNYAISWVRQAPGQGLEWMGGIIPFSGSATYAQNFQGRITITTDESTRTAYMELNGLRSEDTAVYYCARWFSGYGGDFDYWGQGTLVTVSS VL: AIQMTQSPSSLSASVGDRVTITCRASQDIKNDLGWYQQKPGKAPKLLIYAASTLQSGVPSRFSGSGSGTHFTLTLSSLQPEDFATYFCLQDYTFPRTFGQGTKVEIK

>  <UNIT DESCRIPTOR>
h

>  <BOUND SIGN>
≥

>  <t ½>
3.85

$$$$
>  <BINDER>
H2aM10285N (antibody, V domains shown, Chimeric antibody, human variable domains and mouse constant domains (mouse Fc, prefix H2aM); also called H2M10285N) VH: QVQLVQSGAEVKKPGSSVKVSCKASGGTFTNFAISWVRQAPGLGLEWMGGIIPFVGTATYEQKFQGRVSITADESTRTAYMELSSLRYDDTAVYYCARWFSGSGGDFDYWGQGTLVTVSS VL: AIQMTQSPSSLSASVGDRVTITCRASQGIGNDLGWYQQRRGTAPKLLIYAASSLQSGVPSRFSGSGSGTDFTLTISSLQPEDFATYYCLQDFTFPRTFGQGTKVEIK

>  <UNIT DESCRIPTOR>
h

>  <BOUND SIGN>
=

>  <t ½>
1.37

$$$$
>  <BINDER>
H2aM10200N (antibody, V domains shown, Hybridoma-derived chimeric antibody, human variable domains and mouse constant domains (mouse Fc, prefix H2aM); also called H2M10200N) VH: QVQLVQSGAEVKKPGSSVKVSCKASGGTFSSYAISWVRQAPGQGLEWMGGIIPFFGTATYAQKFQGRVTITTDESTRTVYMELSSLRYEDTAVYYCARWYSGYGGDFDYWGQGTLVTVSS VL: AIQMTQSPSSLSASVGDRVTITCRASQGIRNDLGWFQQKPGKAPKLLIYAASSLQSGVPSRFSGSGSGTDFTLSISSLQPEDFATYYCLQDYSYPRTFGQGTKVEIK

>  <UNIT DESCRIPTOR>
h

>  <BOUND SIGN>
=

>  <t ½>
2.28

$$$$
